Reported values of logP for individual entries
# reported-conditions: HPLC, reversed-phase C 18, 40° C., 0.1% aqueous formic acid and acetonitrile, gradient 10% to 95% acetonitrile
property-label: logP

# molecule, property-label, obs-value
measured = [
    ("Cc1nc2ccccc2nc1Oc1ccncc1[Si](C)(C)C [I.23]", "logP", 2.49),
    ("C[Si](C)(c1ccccc1)c1sccc1Cn1cnc2ccccc21 [I.26]", "logP", 2.49),
    ("Cc1nc2c(F)c(F)ccc2nc1Oc1cnccc1[Si](C)(C)C [I.19]", "logP", 3.94),
    ("C[Si](C)(C)c1cnccc1Oc1cnc2c(F)cccc2n1 [I.15]", "logP", 2.75),
    ("C[Si](C)(C)c1sccc1Cn1cnc2ccccc21 [I.25]", "logP", 2.08),
    ("C[Si](C)(C)c1cnccc1Oc1cnc2ccccc2c1 [I.02]", "logP", 2.15),
    ("Cc1nc2c(F)c(F)ccc2nc1Oc1ccncc1[Si](C)(C)C [I.18]", "logP", 2.80),
    ("C[Si](C)(C)c1cnccc1Oc1cnc2ccccc2n1 [I.01]", "logP", 2.64),
    ("Fc1nccc(Oc2cnc3ccccc3c2)c1Br [IIb.01]", "logP", 2.92),
]
